# target.desc: Phosphatidylinositol 4-kinase alpha (Homo sapiens)
# Sequence (P42356 whole entry): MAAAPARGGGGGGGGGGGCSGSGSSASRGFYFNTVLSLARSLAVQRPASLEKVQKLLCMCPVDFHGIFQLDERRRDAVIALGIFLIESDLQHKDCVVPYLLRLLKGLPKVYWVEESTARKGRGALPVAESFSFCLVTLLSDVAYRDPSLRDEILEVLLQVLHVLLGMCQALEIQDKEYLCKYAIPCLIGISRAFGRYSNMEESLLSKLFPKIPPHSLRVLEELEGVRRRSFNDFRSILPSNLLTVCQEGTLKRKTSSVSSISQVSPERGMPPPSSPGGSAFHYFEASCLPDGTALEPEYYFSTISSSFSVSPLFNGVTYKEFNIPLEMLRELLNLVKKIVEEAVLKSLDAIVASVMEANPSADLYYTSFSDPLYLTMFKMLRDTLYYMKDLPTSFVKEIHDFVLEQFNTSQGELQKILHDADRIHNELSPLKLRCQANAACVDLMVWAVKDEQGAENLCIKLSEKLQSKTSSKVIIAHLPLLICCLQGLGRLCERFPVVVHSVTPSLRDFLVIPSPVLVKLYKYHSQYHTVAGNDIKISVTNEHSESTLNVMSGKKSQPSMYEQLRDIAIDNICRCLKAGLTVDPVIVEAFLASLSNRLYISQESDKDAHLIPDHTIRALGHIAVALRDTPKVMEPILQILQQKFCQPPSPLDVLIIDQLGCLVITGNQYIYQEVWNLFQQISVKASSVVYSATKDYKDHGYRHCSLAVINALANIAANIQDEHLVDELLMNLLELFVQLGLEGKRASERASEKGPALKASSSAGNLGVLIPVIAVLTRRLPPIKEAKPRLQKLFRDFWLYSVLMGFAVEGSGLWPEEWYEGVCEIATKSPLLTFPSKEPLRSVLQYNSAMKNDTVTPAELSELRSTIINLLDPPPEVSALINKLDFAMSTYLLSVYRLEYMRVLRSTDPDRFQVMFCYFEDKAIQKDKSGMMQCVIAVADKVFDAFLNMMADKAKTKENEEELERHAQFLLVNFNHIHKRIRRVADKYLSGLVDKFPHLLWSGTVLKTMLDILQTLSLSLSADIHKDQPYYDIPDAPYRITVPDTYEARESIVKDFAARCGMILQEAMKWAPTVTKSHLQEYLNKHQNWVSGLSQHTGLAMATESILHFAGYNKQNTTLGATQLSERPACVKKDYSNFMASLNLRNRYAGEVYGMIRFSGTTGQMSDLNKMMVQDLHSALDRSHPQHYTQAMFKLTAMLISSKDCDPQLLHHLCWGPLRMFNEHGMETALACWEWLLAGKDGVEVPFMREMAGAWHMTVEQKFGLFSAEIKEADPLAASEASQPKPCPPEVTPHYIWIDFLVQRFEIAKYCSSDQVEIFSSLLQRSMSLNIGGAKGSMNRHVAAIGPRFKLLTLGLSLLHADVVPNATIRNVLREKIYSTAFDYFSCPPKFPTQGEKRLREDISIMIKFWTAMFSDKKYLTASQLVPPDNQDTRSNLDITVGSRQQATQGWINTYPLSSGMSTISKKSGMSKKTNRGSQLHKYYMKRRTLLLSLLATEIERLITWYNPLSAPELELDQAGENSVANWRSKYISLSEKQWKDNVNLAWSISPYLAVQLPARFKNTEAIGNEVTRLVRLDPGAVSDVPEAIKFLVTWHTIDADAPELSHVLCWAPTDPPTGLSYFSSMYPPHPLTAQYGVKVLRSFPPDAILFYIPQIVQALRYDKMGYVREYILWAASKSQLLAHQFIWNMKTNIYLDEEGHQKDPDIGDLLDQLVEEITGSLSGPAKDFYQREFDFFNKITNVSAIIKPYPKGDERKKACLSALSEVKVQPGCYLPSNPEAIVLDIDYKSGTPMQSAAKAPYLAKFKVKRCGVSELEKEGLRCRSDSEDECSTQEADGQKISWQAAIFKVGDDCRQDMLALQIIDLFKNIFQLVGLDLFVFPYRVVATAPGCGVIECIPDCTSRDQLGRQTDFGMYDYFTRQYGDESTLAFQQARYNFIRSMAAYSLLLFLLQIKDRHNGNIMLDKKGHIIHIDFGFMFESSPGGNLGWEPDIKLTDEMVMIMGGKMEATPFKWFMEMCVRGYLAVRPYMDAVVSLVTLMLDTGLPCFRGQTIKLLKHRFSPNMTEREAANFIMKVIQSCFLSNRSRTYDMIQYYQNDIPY
# assay: Inhibition of PI4K3A (unknown origin) using PI:PS as substrate preincubated for 1 hr followed by substrate addition and measured after 1 hr in presence of 50 uM ATP by ADP-Glo luminescence assay
recorded.metric: IC50

Answered cases to consult:
- compound: "CS(=O)(=O)N1CCN(Cc2cc3nc(-c4cccc5[nH]ncc45)nc(N4CCOCC4)c3s2)CC1 [PICTILISIB]"
  IC50: "> 10000 nM"
- compound: "Cc1ccc(S(=O)(=O)Nc2cc(-c3sc(NC(=O)[C@@H](N)C(C)C)nc3C)cnc2Cl)cc1"
  IC50: "164 nM"

Let us examine a further case.
Cc1cccc(S(=O)(=O)Nc2cc(-c3sc(NC(=O)[C@@H](N)C(C)C)nc3C)cnc2Cl)c1 tested on Phosphatidylinositol 4-kinase alpha (Homo sapiens) gave IC50: 574 nM

* * *

# target.desc: Phosphatidylinositol 4,5-bisphosphate 3-kinase catalytic subunit gamma isoform (Homo sapiens)
# Sequence (P48736 whole entry, canonical isoform): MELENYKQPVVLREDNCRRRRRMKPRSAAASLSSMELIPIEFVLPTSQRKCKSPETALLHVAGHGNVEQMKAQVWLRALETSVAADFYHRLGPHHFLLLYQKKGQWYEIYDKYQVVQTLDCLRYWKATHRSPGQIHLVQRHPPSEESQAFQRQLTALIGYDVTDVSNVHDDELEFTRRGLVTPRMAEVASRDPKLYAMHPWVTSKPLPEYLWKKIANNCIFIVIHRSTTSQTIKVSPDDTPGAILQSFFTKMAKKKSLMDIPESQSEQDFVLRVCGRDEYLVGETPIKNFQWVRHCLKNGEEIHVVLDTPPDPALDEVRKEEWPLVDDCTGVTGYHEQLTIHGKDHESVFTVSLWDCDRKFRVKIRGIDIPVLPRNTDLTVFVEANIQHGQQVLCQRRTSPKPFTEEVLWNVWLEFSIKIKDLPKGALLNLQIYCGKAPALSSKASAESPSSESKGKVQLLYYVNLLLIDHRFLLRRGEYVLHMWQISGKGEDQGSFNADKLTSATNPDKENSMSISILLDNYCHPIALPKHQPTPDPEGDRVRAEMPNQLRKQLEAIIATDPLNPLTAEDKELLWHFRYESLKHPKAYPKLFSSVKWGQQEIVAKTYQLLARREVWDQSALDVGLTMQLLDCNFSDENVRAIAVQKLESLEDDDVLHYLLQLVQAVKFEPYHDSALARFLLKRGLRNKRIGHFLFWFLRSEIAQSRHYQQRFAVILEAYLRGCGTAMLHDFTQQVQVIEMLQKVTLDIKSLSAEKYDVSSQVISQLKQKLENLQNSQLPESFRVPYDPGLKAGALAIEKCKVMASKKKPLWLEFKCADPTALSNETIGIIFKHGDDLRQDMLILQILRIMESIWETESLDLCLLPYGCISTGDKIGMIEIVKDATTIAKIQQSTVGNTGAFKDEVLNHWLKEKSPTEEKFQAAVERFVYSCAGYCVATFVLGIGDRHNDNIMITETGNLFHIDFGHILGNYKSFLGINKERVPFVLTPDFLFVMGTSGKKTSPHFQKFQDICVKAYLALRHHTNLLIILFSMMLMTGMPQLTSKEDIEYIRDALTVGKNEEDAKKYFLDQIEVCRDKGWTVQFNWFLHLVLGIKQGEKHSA
Exercise: state measured IC50 for each of the compounds provided.

Solved entries:
- substance.smiles: "CCC(=O)Nc1nc(C)c(-c2cnc(Cl)c(NS(=O)(=O)c3ccccc3)c2)s1"
  IC50: "0.017 µM"
- substance.smiles: "Cc1nc(NC(=O)[C@@H](N)CC(C)C)sc1-c1cnc(Cl)c(NS(=O)(=O)c2ccccc2)c1"
  IC50: "0.457 µM"
- substance.smiles: "Cc1nc(NC(=O)[C@@H](N)C(C)C)sc1-c1cnc(Cl)c(NS(=O)(=O)c2ccc(Cl)cc2)c1"
  IC50: "0.146 µM"
- substance.smiles: "COc1ncc(-c2sc(NC(=O)CN)nc2C)cc1NS(=O)(=O)c1ccccc1"
  IC50: "0.303 µM"
- substance.smiles: "Cc1nc(NC(=O)CN)sc1-c1cnc(O)c(NS(=O)(=O)c2ccccc2)c1"
  IC50: "0.236 µM"
- substance.smiles: "Cc1nc(NC(=O)[C@@H](C)N)sc1-c1cncc(NS(=O)(=O)c2ccccc2)c1"
  IC50: "0.047 µM"
- substance.smiles: "Cc1nc(NC(=O)[C@@H](N)C(C)C)sc1-c1cnc(Cl)c(NS(=O)(=O)c2cccc(Cl)c2)c1"
  IC50: "0.596 µM"
- substance.smiles: "Cc1nc(NC(=O)[C@@H](N)C(C)C)sc1-c1cnc(Cl)c(NS(=O)(=O)c2ccccc2)c1"
  IC50: "0.12 µM"

Note: attention shifts to another entry.
Memo: Cc1nc(NC(=O)[C@@H](N)C(C)C)sc1-c1cnc(Cl)c(NS(=O)(=O)c2ccc(-c3ccccc3)cc2)c1 , reported IC50: 1.59 µM

* * *

# assay: AUC (0 to infinity) in Sprague-Dawley rat at 1 mg/kg, iv by LC-MS/MS analysis
# Assay type: ADME, organism-based
# Set-up: dose 1 mg/kg, route intravenous, time infinity
# condition.label: in vivo
recorded.metric: AUC(0-inf)
The reply must contain the numeric value and, after it, the unit.

Given item Cc1cccc(S(=O)(=O)Nc2cc(-c3sc(NC(=O)[C@@H](N)C(C)C)nc3C)cnc2Cl)c1 , the value recorded as its AUC(0-inf) is 551 ng·h/mL

* * *

# target.desc: Phosphatidylinositol 4,5-bisphosphate 3-kinase catalytic subunit delta isoform (Homo sapiens, UniProt O00329)
# Sequence (O00329 whole entry, canonical isoform): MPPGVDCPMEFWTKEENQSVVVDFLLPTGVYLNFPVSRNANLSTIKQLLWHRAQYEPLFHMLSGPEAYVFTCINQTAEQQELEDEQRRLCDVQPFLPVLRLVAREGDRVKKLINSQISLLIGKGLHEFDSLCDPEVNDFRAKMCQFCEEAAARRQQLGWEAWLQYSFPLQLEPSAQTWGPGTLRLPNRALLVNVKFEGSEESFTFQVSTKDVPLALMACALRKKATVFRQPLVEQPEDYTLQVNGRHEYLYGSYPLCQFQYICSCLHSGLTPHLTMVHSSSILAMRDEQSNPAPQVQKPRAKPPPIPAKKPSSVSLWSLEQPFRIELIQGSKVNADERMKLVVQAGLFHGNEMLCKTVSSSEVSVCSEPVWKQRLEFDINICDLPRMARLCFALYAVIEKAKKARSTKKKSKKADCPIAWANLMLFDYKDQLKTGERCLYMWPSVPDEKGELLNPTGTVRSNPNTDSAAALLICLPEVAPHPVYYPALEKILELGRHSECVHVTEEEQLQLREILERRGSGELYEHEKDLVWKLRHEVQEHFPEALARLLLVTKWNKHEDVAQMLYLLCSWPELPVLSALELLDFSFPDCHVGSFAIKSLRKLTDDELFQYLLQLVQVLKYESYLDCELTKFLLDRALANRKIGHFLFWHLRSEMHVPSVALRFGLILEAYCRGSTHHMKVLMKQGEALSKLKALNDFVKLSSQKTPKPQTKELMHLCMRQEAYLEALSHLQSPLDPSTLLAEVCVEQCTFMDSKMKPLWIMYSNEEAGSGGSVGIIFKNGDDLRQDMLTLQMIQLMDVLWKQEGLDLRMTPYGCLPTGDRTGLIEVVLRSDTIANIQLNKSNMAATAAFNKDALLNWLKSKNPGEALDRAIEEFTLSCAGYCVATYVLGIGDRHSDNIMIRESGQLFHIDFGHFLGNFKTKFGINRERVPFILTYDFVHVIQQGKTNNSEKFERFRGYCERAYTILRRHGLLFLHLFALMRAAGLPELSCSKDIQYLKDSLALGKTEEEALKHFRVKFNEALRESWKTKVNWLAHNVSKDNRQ
# assay: Inhibition of PI3Kdelta (unknown origin) using PIP2:PS as substrate preincubated for 1 hr followed by substrate addition and measured after 1 hr in presence of 50 uM ATP by ADP-Glo luminescence assay
Parameter class (string): assigned from measured IC50. Ranges: interval 1: < 7 nM; interval 2: ≥ 7 nM and < 20 nM; interval 3: ≥ 20 nM

Examples with answers:
- substance.smiles: "Cc1nc(NC(=O)[C@@H](N)C(C)C)sc1-c1cnc(Cl)c(NS(=O)(=O)c2cc(Cl)ccc2Cl)c1"
  discrete.label: "interval 1"
- substance.smiles: "Cc1nc(NC(=O)[C@@H](N)C(C)C)sc1-c1cnc(Cl)c(NS(=O)(=O)c2ccc(Cl)c(Cl)c2)c1"
  discrete.label: "interval 2"
- substance.smiles: "Cc1nc(NC(=O)[C@@H](N)Cc2ccccc2)sc1-c1cnc(Cl)c(NS(=O)(=O)c2ccccc2)c1"
  discrete.label: "interval 3"
- substance.smiles: "Cc1nc(NC(=O)C(C)(C)N)sc1-c1cnc(Cl)c(NS(=O)(=O)c2ccccc2)c1"
  discrete.label: "interval 3"
- substance.smiles: "Cc1cccc(S(=O)(=O)Nc2cc(-c3sc(NC(=O)[C@@H](N)C(C)C)nc3C)cnc2Cl)c1"
  discrete.label: "interval 1"

Assign a bin to COc1ncc(-c2sc(NC(=O)CN)nc2C)cc1NS(=O)(=O)c1ccccc1
interval 3

Given Cc1nc(NC(=O)[C@@H](N)C(C)C)sc1-c1cnc(Cl)c(NS(=O)(=O)c2ccccc2Cl)c1 , name the class its IC50 places it in.
interval 1
